# Tested on: Vero E6 infected with SARS-CoV-2
# ASSAY DETAILS: inhibition of SARS-CoV-2 cytopathic effect; higher = more antiviral protection, active = above 15
# CONDITION CONTEXT: 10000 nM; 48 h
RECORDED ENDPOINT: inhibition of SARS-CoV-2 cytopathic effect (%)
State just the number; it will be interpreted in %.

COMPOUND | UNIT ABBREV | RESULT VALUE
O=C(O)CN1C(=O)c2cccc3cccc(c23)C1=O | % | 1.83
CC(=O)NC[C@H]1CN(c2ccc(-c3ccc(CNCc4cnn[nH]4)cc3)c(F)c2)C(=O)O1 | % | 2.43

Checklist item: inhibition of SARS-CoV-2 cytopathic effect tested on Vero E6 infected with SARS-CoV-2, entry CN1CCC[C@@H](CC2c3ccccc3Sc3ccccc32)C1 (racemic) , value?
42.2

* * *

# Test system: Vero E6 infected with SARS-CoV-2
# ASSAY DETAILS: inhibition of SARS-CoV-2 cytopathic effect; higher = more antiviral protection, active = above 15
# CONDITION CONTEXT: 1 nM; 48 h
Reported inhibition of SARS-CoV-2 cytopathic effect values for a set of molecules
State just the number; it will be interpreted in %.

MOLECULE | RESULT VALUE
NCCc1cc[nH]n1 | 0.58
COc1ccc(NC(=O)c2ccc(C(=N)N(C)C)cc2)c(C(=O)Nc2ccc(Cl)cn2)c1 | -1.01
c1ccc(CCCCN2CCC(c3ccccc3)CC2)cc1 | -1.33

Item O=C1C(CC[S+]([O-])c2ccccc2)C(=O)N(c2ccccc2)N1c1ccccc1 (stereo not drawn) has what recorded inhibition of SARS-CoV-2 cytopathic effect?
1.22

Can you check COC(=O)C(Cc1ccc(OCCn2c(=O)sc3cc(C(=O)c4ccccc4)ccc32)cc1)C(=O)OC next?
-0.38

Can you check Cc1ncc(CSSCc2cnc(C)c(O)c2CO)c(CO)c1O next?
-0.56

Can you check CC(C)(C)C(=O)OCOC(=O)[C@@H]1N2C(=O)[C@@H](NC(=O)[C@H](N)c3ccccc3)[C@H]2SC1(C)C next?
3.04

Can you check Oc1ccc2c3c1O[C@H]1c4[nH]c5c(c4C[C@@]4(O)[C@@H](C2)N(CC2CC2)CC[C@]314)C[C@@]1(O)[C@H]2Cc3ccc(O)c4c3[C@@]1(CCN2CC1CC1)[C@H]5O4 next?
1.48

Can you check Cc1cccc(C)c1NC(=O)CN1CCCC1=O next?
-0.7

Can you check C#Cc1cccc(Nc2ncnc3cc(OCCOC)c(OCCOC)cc23)c1 next?
-0.8

Can you check O=C1CN=C(c2cccc(Br)c2)c2oc3ccccc3c2N1 next?
-2.75

Can you check C=CCN(C)CCCCCCOc1ccc(C(=O)c2ccc(Br)cc2)c(F)c1 next?
0.63

Can you check N#C/C(=C\c1ccc(O)c(O)c1)C(=O)NCCCCc1ccccc1 next?
0.51

Can you check COc1ccc(COc2ccc(Cc3cnc(N)nc3N)cc2OC)cc1 next?
-0.78

Can you check CCC(C)SSc1ncc[nH]1 (stereo not drawn) next?
-1.26

Can you check Clc1cccc(N2CCNCC2)c1 next?
-1.68

Can you check CCCSc1nc(N[C@@H]2C[C@H]2c2ccc(F)c(F)c2)c2nnn([C@@H]3C[C@H](OCCO)[C@@H](O)[C@H]3O)c2n1 next?
-0.64

Can you check CON(C)C(=O)N1N=C(c2cc(F)ccc2F)S[C@@]1(CCCN)c1ccccc1 next?
-0.78

Can you check COC[C@H](C)Oc1cc(O[C@@H](C)Cc2ccccc2)cc(C(=O)Nc2ccc(C(=O)O)cn2)c1 next?
-1.62

Can you check CC(C)c1ccccc1S(=O)(=O)c1cc(N)c2ncccc2c1[N+](=O)[O-] next?
1.33

Can you check CCOC(=O)c1ncn2c1CN(C)C(=O)c1cc(N=[N+]=[N-])ccc1-2 next?
3.15

Can you check Oc1ccc2c3c1O[C@H]1c4oc5ccccc5c4C[C@@]4(O)[C@@H](C2)N(CC2CC2)CC[C@]314 next?
0.92

Can you check CC(=O)Nc1ccc(C(=O)Nc2ccccc2N)cc1 next?
1.04
